Measure Name: pKd
Would you please state pKd, meaning minus log10 of the concentration in mol/L, as a bare number?

Recorded pKd for [3H]C(O)[C@H]1CN(Cc2c[nH]c3c(=O)[nH]cnc23)C[C@@H]1O (stereo partly specified) with Purine nucleoside phosphorylase (Homo sapiens, UniProt P00491), please?
11.07
